Target: HIV-1 ZM249 Env (HIV-1)
Assay: cell-based or functional assay
parameter: IC50, TZM-bl pseudovirus neutralization

>  <binder>
1503_H05 (PG16) (TCN-119) (antibody, V domains shown) VH: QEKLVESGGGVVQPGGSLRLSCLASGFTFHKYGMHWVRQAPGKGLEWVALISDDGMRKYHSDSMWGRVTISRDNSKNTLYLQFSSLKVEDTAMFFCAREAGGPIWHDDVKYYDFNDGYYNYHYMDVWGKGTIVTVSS VL: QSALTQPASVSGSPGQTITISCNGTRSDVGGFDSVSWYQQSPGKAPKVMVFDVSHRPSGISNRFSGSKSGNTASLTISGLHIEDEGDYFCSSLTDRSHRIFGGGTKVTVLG

>  <parameter>
IC50, TZM-bl pseudovirus neutralization

>  <endpoint_value>
< 0.01 mg/L

$$$$
>  <binder>
1469_M23 (PG16) (TCN-118) (antibody, V domains shown) VH: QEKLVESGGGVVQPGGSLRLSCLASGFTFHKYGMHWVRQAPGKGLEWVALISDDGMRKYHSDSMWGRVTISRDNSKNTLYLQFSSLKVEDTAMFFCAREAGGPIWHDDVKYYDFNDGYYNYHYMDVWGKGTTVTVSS VL: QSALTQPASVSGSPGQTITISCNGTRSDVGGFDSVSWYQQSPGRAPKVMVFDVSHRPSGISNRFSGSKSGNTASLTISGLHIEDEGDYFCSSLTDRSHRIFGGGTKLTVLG

>  <parameter>
IC50, TZM-bl pseudovirus neutralization

>  <endpoint_value>
< 0.01 mg/L

$$$$
>  <binder>
1489_I13 (PG16) (TCN-120) (antibody, V domains shown) VH: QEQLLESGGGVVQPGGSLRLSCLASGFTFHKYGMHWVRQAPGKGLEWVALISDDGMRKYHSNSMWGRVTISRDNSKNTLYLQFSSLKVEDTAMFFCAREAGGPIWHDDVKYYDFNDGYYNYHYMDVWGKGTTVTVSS VL: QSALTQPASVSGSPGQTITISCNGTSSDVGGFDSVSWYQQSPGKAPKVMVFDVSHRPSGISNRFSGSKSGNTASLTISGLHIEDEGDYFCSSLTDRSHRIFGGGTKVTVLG

>  <parameter>
IC50, TZM-bl pseudovirus neutralization

>  <endpoint_value>
< 0.01 mg/L

$$$$
